The values you see were collected from patent US20160200799A1.

Please provide measured Binding activity (absorbance at 492 nm) for the entries that follow.
# Target of assay: Influenza virus A/Brisbane/59/2007 (H1N1) (Influenza A virus A/Brisbane/59/2007 (H1N1))
# Assay: ELISA on coated viral particles
Lab note: record the figure alone, no unit after it.

Task: GET /values?readout=Binding activity (absorbance at 492 nm)&item= Group 64 representative clone F083-301, Fab-cp3-type antibody (Fab, V domains shown) VH: QVQLVQSGAEVKKPGSSVKVSCKASGGIFNSNAISWVRQAPGQGLEWMGGIIGIFGTANYAQKFQGRVTIAADQSTNTVFMELSSLTSEDTAVYFCARSRGYSFGYGTDYFDYWGQGTLVTVSS VL: DIVMTQSPSTLSASVGDRVTITCRASQSISSWLAWYQQAPGKAPKLLIYEASKLQSGVPSRFSATGSGTEFTLTIASLQPEDFAIYYCQHYEAYPFSFGPGTKLDVK
Output: 1.44

Task: Also check Group 35 representative clone F082-117, Fab-cp3-type antibody (Fab, V domains shown) VH: QVQLVQSGSEVKKPGSSVKVSCKSSGGILRRSAISWVRQAPGQGLEWMGGILAIFGTTKYAQKFQGRITITADESTNTVHMELSSLRPDDTAVYYCAGGPHYYVSYFDSWGQGTLVTVSS VL: DIQMTQSPATLSLSPGERATLSCRASQSVRSYLAWYQQKPGQAPRLLIYDASNRATGIPARFSGSGSGTEFTLTISRLEPEDFAVYYCQQRSNWLFTFGPGTKVDFK
Output: 3.26

Task: Also check Group 48 representative clone F083-389, Fab-cp3-type antibody (Fab, V domains shown) VH: QVQLVQSGAEVKKPGSSVKVSCKASGDIFNKFAITWVRQAPGQGLEWMGGITALFATTSYAQKFQDRVTINWDESTTTAFMELSSLRFEDTAVYYCARGPNYYETYLDNWGQGTLVTVSS VL: EIVLTQSPTILSASVGDRVTITCRASQSISKWLAWYQQKPGKVPKLLIYMASTLESGVPSRFSGSGSGSEFTLTISSLQPGDFATYYCQQYNSYPRTFGQGTKVEINV
Output: 2.83

Task: Also check Group 39 representative clone F082-237, Fab-cp3-type antibody (Fab, V domains shown) VH: QVQLVQSGAEVKKPGSSVKVSCKASGGIFNKYGISWVRQAPGQGLEWMGGILAIFGTTNYAQKFQGRVTISADESSTTVYMELSSLTSEDTAVYYCARGNTYYSSYFDQWGQGTLVTVSS VL: QSVLTQPPSVSVAPGQTATITCGGDKIGTGPVHWYQQMPGRAPVLLIYASTHRPSRIPERFSGSKSDNTATLSISGVGVGDEADYYCQMWDSSSVHPIVFGGGTKLTVLS
Output: 1.95
